Hey, just so you know, these numbers are from the Deep4Chem optical property database.

Experiment: solvent given as SMILES
Details: in CC#N
absorption maximum by entry:
Write the answer as a number in nm, unit excluded.

Solved entries (count: 2):
molecule=CN(C)c1ccc(-c2nc3cc(C(F)(F)F)ccc3n2-c2ccccc2)cc1 unit_string=nm readout_value=332
molecule=COc1nc(Nc2ccc3c4cccc5cccc(c6cccc2c63)c54)nc(OC)n1 unit_string=nm readout_value=444

Q. Sample Cc1ccccc1C(=O)NN1C2=C(CC3=C1CC(C)(C)CC3=O)C(=O)CC(C)(C)C2 — what was its absorption maximum?
A. 370

Q. Query Cc1cc(C)c(C2=C3C=c4c(c5ccccc5c5ccccc45)=[N+]3[B-](F)(F)n3c2cc2c4ccccc4c4ccccc4c23)c(C)c1 next
A. 666
